Organism: Bos taurus
assayNotes: Inhibition of bovine chymotrypsin
Active and inactive are the calls of the source. The rule behind the calls is not given here. Starred links: 1 amine or outer side, 2 acyl side, 3 side chain; linkers in the order of their positions; H or OH if unused. Non-standard residues stand in square brackets, D forms with d. Residues, ends and D or L forms follow the SMILES beside them. N(2-mercaptoethyl)Gly = O=C(CN(CCS[*:3])[*:1])[*:2]; hCys = N[C@@H](CCS)C(=O)O; Nphe = O=C(O)CNCc1ccccc1
propertyMeasured: Ka

CC[C@H](C)[C@@H]1NC(=O)[C@@H]2CCCN2C(=O)[C@@H]2CCCN2C(=O)[C@H]([C@@H](C)CC)NC(=O)[C@H](CO)NC(=O)[C@H](Cc2ccccc2)NC(=O)[C@H]([C@@H](C)O)NC(=O)[C@H](CCS)NC(=O)[C@H](CCCNC(=N)N)NC(=O)CNC(=O)[C@H](CC(=O)O)NC(=O)[C@@H]2CCCN2C(=O)[C@H](Cc2ccccc2)NC(=O)[C@H](CCS)NC1=O (cyclo(DGR[hCys]TFSIPPI[hCys]FP)) : 7.56 ×10⁹ /M
CC[C@H](C)[C@@H]1NC(=O)[C@@H]2CCCN2C(=O)[C@@H]2CCCN2C(=O)[C@H]([C@@H](C)CC)NC(=O)[C@H](CO)NC(=O)[C@H](CCCCN)NC(=O)[C@H]([C@@H](C)O)NC(=O)[C@@H]2CSSC[C@H](NC1=O)C(=O)N[C@@H](Cc1ccccc1)C(=O)N1CCC[C@H]1C(=O)N[C@@H](CC(=O)O)C(=O)NCC(=O)N[C@@H](CCCNC(=N)N)C(=O)N2 : 5.2 ×10⁶ /M
CC[C@H](C)[C@@H]1NC(=O)[C@@H]2CCCN2C(=O)[C@@H]2CCCN2C(=O)[C@H]([C@@H](C)CC)NC(=O)[C@H](CO)NC(=O)[C@H](Cc2ccccc2)NC(=O)[C@H]([C@@H](C)O)NC(=O)CN(CCS)C(=O)[C@H](CCCNC(=N)N)NC(=O)CNC(=O)[C@H](CC(=O)O)NC(=O)[C@@H]2CCCN2C(=O)[C@H](Cc2ccccc2)NC(=O)[C@H](CS)NC1=O (cyclo(CFPDGR[N(2-mercaptoethyl)Gly]TFSIPPI)) : inactive
CC[C@H](C)[C@@H]1NC(=O)[C@@H]2CCCN2C(=O)[C@@H]2CCCN2C(=O)[C@H]([C@@H](C)CC)NC(=O)[C@H](CO)NC(=O)CN(Cc2ccccc2)C(=O)[C@H]([C@H](C)O)NC(=O)[C@H](CS)NC(=O)[C@H](CCCNC(=N)N)NC(=O)CNC(=O)[C@H](CC(=O)O)NC(=O)[C@@H]2CCCN2C(=O)[C@H](Cc2ccccc2)NC(=O)[C@H](CS)NC1=O : 3.9 ×10⁸ /M

Attention now shifts to the item below.
Any idea what its Ka is? The molecule is CC[C@H](C)[C@@H]1NC(=O)[C@@H]2CCCN2C(=O)[C@@H]2CCCN2C(=O)[C@H]([C@@H](C)CC)NC(=O)[C@H](CO)NC(=O)CN(Cc2ccccc2)C(=O)[C@H]([C@@H](C)O)NC(=O)CN(CCS)C(=O)[C@H](CCCNC(=N)N)NC(=O)CNC(=O)[C@H](CC(=O)O)NC(=O)[C@@H]2CCCN2C(=O)[C@H](Cc2ccccc2)NC(=O)CN(CCS)C1=O (cyclo(DGR[N(2-mercaptoethyl)Gly]T[Nphe]SIPPI[N(2-mercaptoethyl)Gly]FP)) inactive

Values were extracted from ChEMBL document CHEMBL1287733.
